tested_target: Exportin-1 (Saccharomyces cerevisiae) (UniProt P30822)
test: Inhibition of GST-NES MVM binding to yeast CRM1 at 20 uM by pull down assay
The source made the active and inactive calls. No cut-off for these calls is given here.
Allowed answers: 1 = active, 0 = inactive

-- ask Write down the call the test reported for this compound. Item: [O-][S+](/C=C/CBr)c1cc(C(F)(F)F)cc(C(F)(F)F)c1 (stereo not drawn)
-- reply 1

-- ask Write down the call the test reported for this compound. Item: CC(C)CCNc1cc(C[S+]([O-])c2cc(C(F)(F)F)cc(C(F)(F)F)c2)on1 (stereo not drawn)
-- reply 0

-- ask Write down the call the test reported for this compound. Item: CC(C)CCNC/C=C/[S+]([O-])c1cc(C(F)(F)F)cc(C(F)(F)F)c1 (stereo not drawn)
-- reply 1

-- ask Write down the call the test reported for this compound. Item: CC(C)CCNc1cc(C[S+]([O-])c2cc(C(F)(F)F)cc(C(F)(F)F)c2)ccn1 (stereo not drawn)
-- reply 0

-- ask Write down the call the test reported for this compound. Item: [O-][S+](Cc1cc(Br)no1)c1cc(C(F)(F)F)cc(C(F)(F)F)c1 (stereo not drawn)
-- reply 0

-- ask Write down the call the test reported for this compound. Item: FC(F)(F)c1cc(SCc2ccnc(Cl)c2)cc(C(F)(F)F)c1
-- reply 0

-- ask Write down the call the test reported for this compound. Item: [O-][S+](Cc1ccnc(Cl)c1)c1cc(C(F)(F)F)cc(C(F)(F)F)c1 (stereo not drawn)
-- reply 0

-- ask Write down the call the test reported for this compound. Item: FC(F)(F)c1cc(S/C=C/CBr)cc(C(F)(F)F)c1
-- reply 1
